# System: A-431
# MEASUREMENT_NOTES: Concentration required to inhibit the epidermoid A431 cell growth by 50%, P53 status of cell line used was mutant.
# PROTOCOL_CONDITIONS: Homo sapiens
PROPERTY_MEASURED: pIC50
Give bare numbers, as −log10 of the molar value.

Quick check: pIC50 of `CN(C)c1ccc(C(=O)NCCCCCCC(=O)NO)cc1` ?
5.64

----------
# TARGET: Histone deacetylase
# MEASUREMENT_NOTES: Concentration required to inhibit human Histone deacetylase (HDAC) enzyme by 50%
# Format: protein assay
PROPERTY_MEASURED: IC50 (µM)
Numbers only, in µM.

Recorded IC50, per entry:
>>> experimental_value("O=C(CCCCCN1C(=O)c2ccccc2C1=O)NO")
0.515
>>> experimental_value("O=C(CCCCCCC(=O)Nc1ccncc1)NO")
0.306
>>> experimental_value("O=C(CCCCCNC(=O)c1ccc(-c2ccccc2)cc1)NO")
0.265

Report IC50 for every entry below.
1. O=C(O)CCCCCCC(=O)c1ccccc1
2. O=C(CCCCCNC(=O)c1ccc(OCc2ccccc2)cc1)NO
3. O=C(CCCCCNC(=O)c1ccc([N+](=O)[O-])cc1)NO
4. CN(C)c1ccc(C(=O)NCCCCCCCC(=O)NO)cc1

1. 0.27
2. 0.22
3. 1.556
4. 0.145

Report IC50 for every entry below.
1. O=C(CCCCCCNC(=O)c1ccccc1)NO
2. CN(C)c1ccc(C(=O)NCCCCCCC(=O)NO)cc1

0.568
0.046

Report IC50 for every entry below.
1. COc1ccc(NC(=O)CCCCCCC(=O)NO)cc1
2. O=C(CCCCCNC(=O)c1ccc(Cl)cc1)NO
3. CN(CCCCCC(=O)NO)C(=O)c1ccc(N(C)C)cc1

1: 0.279; 2: 0.369; 3: 0.443
